ASSAY_METHOD_TEXT: Apparent permeability in Caco-2 cell from apical to basolateral
Format: ADME, cell-based
SETUP_CONDITIONS: human
The compounds listed here are annotated with their Papp A→B.
READOUT_TYPE: Papp A→B (×10⁻⁶ cm/s)

[[record]]
smi = "CN(C(=O)Nc1ccc2c(-c3ccncc3)c[nH]c2c1)c1ccccc1"
obs_value = 14.3

[[record]]
smi = "O=C(NOCc1ccccc1)Nc1ccc2c(-c3ccncc3)c[nH]c2c1"
obs_value = 6.5

[[record]]
smi = "O=S(=O)(Nc1ccc2c(-c3ccncc3)c[nH]c2c1)c1ccccc1"
obs_value = 6.5

[[record]]
smi = "Cn1cc(C#N)c2ccc(NC(=O)NOCc3ccccc3)cc21"
obs_value = 19.3

[[record]]
smi = "c1ccc2c(-c3ccncc3)c[nH]c2c1"
obs_value = 26.2

[[record]]
smi = "Cn1cc(C#N)c2ccccc21"
obs_value = 36.7

